Biological target: human RORγ (Homo sapiens, UniProt P51449)
Construct: human RORγ, from Ser253 to Lys518; expressed in transfected cells; host or cells: CHO cells (Chinese hamster ovary), transient co-transfection with pG5-Luc
Sequence (P51449 253-518): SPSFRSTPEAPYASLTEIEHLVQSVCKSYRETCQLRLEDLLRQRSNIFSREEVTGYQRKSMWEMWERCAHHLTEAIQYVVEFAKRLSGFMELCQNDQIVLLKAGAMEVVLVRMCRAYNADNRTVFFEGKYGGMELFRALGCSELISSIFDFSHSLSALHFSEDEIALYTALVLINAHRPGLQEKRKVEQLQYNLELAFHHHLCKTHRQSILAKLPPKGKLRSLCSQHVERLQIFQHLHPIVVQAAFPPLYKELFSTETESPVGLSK
Assay: In vitro assay of inhibitory effect against RORγ transcriptional activity (GAL4-hRORγ LBD luciferase reporter gene assay in CHO cells)
Format: cell-based
Details: GAL4-hRORγ LBD luciferase reporter, CHO cells; read-out: LUC EC50 hRORγ
Measurement kind: log10 EC50 (log10 of the value in nM)
Values below are the log10 of the recorded EC50, with nM as the unit.

Identify log10 EC50 associated with the compound CC(C)C1=CN(C23CC(C(=O)O)(C2)C3)C(=O)N[C@@]1(C)c1ccc(CCC(C)(C)C)c(C(F)(F)F)c1 [Example 322] 1.32

Output measured log10 EC50 for this item: COCCC1=CN([C@H]2CC[C@H](C(=O)O)CC2)C(=O)N[C@@]1(C)c1ccc(CCC(C)(C)C)c(C(F)(F)F)c1 [Example 325] 2.24

Please supply the value of reported log10 EC50 for the item CC(C)CCOc1c(F)cc([C@]2(C)NC(=O)N(CCC(=O)O)C=C2C(C)C)cc1Cl [Example 195] 1.26

Given CC(C)C1=CN(CCC(=O)O)C(=O)N[C@@]1(C)c1ccc([C@H]2C[C@@H](C(C)(C)C)C2)c(Cl)c1 [Example 302] , respond with its log10 EC50. 1.45

Dear colleague, please send me the reported log10 EC50 for CC(C)C1=CN(CC(C)C(=O)O)C(=O)N[C@@]1(C)c1ccc(CCC(C)(C)C)c(Cl)c1 (single isomer, unassigned) [Example 299] when you can. 1.04

Tell me log10 EC50 reported for CC(C)(C)CCc1ccc([C@]2(C)NC(=O)N(CC3CC(F)(F)C3)C=C2[C@H]2C[C@@H](C(=O)O)C2)cc1Cl [Example 248] 1.00

Provide only the value of recorded log10 EC50 for CC(C)C1=CN(CCC(=O)O)C(=O)N[C@@]1(C)c1ccc(CC2CCCCC2)c(Cl)c1 [Example 268] 1.18
